Biological target: mu opiate receptor (Rattus norvegicus, UniProt P33535)
Construct: from tissue; host or cells: rat brain membranes/homogenate
Sequence (P33535 whole entry): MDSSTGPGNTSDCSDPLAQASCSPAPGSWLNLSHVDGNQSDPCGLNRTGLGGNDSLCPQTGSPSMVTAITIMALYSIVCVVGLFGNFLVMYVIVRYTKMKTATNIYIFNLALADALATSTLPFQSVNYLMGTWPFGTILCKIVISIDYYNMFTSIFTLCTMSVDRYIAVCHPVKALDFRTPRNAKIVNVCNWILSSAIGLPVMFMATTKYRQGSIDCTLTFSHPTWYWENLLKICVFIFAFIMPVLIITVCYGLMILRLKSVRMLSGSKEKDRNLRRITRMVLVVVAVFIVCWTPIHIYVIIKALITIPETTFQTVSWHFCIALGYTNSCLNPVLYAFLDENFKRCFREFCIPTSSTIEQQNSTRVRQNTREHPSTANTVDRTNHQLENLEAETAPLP
Experiment: Inhibition of [3H]DAMGO binding to the mu opiate receptor in rat brain homogenates
Settings: [3H]DAMGO bound; 0.08 mg of compound per milliliter, 7 nM 3H-labeled DAMGO, rat brain membranes
Text: The previously prepared [3,5,7]-1H-imidazo[1,5-a]-imidazol-2(3H)-one library of individual compounds was screened for the ability to inhibit the binding of [^3H] [D-Ala^2,MePhe^4,Gly^5-ol]enkephalin (DAMGO) that is known to bind specifically to the mu opiate receptor present in rat brain homogenates following literature procedures. [Dooley et al., Science, 266:2019(1994); U.S. Pat. No. 5,763,193.] […]
The following compounds are shown together with reported % Bound values.
Provide a numeric answer, followed by its unit.

{"compound": "CC(C)c1nc(Cc2ccc(F)cc2)n2c1NC(=O)C2C(C)C (racemic)", "assayedSystem": "mu opiate receptor (Rattus norvegicus, UniProt P33535)", "% Bound": "47%"}

Value wanted: % Bound (mu opiate receptor (Rattus norvegicus, UniProt P33535)) of entry CCCc1nc(C)n2c1NC(=O)C2C(C)C (centres unmarked) [Pool 45]
62%

Value wanted: % Bound (mu opiate receptor (Rattus norvegicus, UniProt P33535)) of entry Cc1nc(Cc2ccc(O)cc2)c2n1C(C(C)C)C(=O)N2 (racemic) [Pool 64]
42%

Value wanted: % Bound (mu opiate receptor (Rattus norvegicus, UniProt P33535)) of entry Cc1nc(C(C)C)c2n1C(CC(C)C)C(=O)N2 (centres unmarked) [Pool 20]
50%

Value wanted: % Bound (mu opiate receptor (Rattus norvegicus, UniProt P33535)) of entry Cc1ccc(Cc2nc(C(C)C)c3n2C(C(C)C)C(=O)N3)cc1 (racemic)
58%

###

The following compounds are shown together with reported Mean values.
molecular target: kappa opiate receptor (Cavia porcellus, UniProt P41144); construct: guinea pig cortices and cerebella were homogenized in 40 mL of Buffer A; from tissue; host or cells: guinea pig cortices and cerebella, crude membrane suspension; test: Inhibition of tritiated U69,593 binding to the kappa opiate receptor in guinea pig brain homogenates; design: unit not given beside the values; conditions: mean bound radioactivity of [3H]U69,593; 3 nm tritiated U69,593, guinea pig brain membranes, 2.5 hours 25° C.
Sequence (P41144 whole entry): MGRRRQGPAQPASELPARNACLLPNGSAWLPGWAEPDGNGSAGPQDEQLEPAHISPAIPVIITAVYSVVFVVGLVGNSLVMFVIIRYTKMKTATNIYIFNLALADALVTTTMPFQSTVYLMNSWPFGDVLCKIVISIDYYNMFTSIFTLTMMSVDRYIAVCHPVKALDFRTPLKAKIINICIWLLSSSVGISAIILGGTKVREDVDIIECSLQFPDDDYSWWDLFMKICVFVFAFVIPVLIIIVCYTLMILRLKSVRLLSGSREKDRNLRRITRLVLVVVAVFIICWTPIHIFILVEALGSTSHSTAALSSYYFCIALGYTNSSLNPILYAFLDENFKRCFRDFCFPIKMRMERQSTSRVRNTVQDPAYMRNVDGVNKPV
Just the number.

Some entries whose results are on file:
{"compound": "COc1ccc(Cc2nc(C(C)C)c3n2C(C(C)C)C(=O)N3)cc1 (racemic)", "assayedSystem": "kappa opiate receptor (Cavia porcellus, UniProt P41144)", "Mean": 1812.05}
{"compound": "Cc1nc(Cc2ccccc2)c2n1C(C(C)C)C(=O)N2 (racemic) [Pool 63]", "assayedSystem": "kappa opiate receptor (Cavia porcellus, UniProt P41144)", "Mean": 1786.7}
{"compound": "CC(C)c1nc(Cc2cccc(C(F)(F)F)c2)n2c1NC(=O)C2C(C)C (racemic)", "assayedSystem": "kappa opiate receptor (Cavia porcellus, UniProt P41144)", "Mean": 1717.2}

// query Mean value for entry CCCc1nc(C(C)C)c2n1C(C(C)C)C(=O)N2 (racemic)
1533.45

// query Mean value for entry CC(C)c1nc(C2CCCCC2)n2c1NC(=O)C2C(C)C (stereo not shown)
2249.85

// query Mean value for entry Cc1nc(Cc2ccc(O)cc2)c2n1C(C(C)C)C(=O)N2 (racemic) [Pool 64]
1545.5

// query Mean value for entry CC(C)CCc1nc(C(C)C)c2n1C(C(C)C)C(=O)N2 (stereo not shown)
1592.6

The measured values listed here are drawn from patent US6545032B1.
